Values from patent US10428140B2

// reported hEphA1-SEAP-: absorbance at 450 nm, percentage with respect to hEphA4-SEAP-His as 100% per item
Target: T1, human EphA1 (Homo sapiens, UniProt P21709)
T1 construct: a protein of the extracellular region of each human Eph receptor fused with the SEAP protein and the His tag; made in house; host or cells: Expi293F cells (culture supernatant)
T1 sequence (P21709 26-547 limits assumed): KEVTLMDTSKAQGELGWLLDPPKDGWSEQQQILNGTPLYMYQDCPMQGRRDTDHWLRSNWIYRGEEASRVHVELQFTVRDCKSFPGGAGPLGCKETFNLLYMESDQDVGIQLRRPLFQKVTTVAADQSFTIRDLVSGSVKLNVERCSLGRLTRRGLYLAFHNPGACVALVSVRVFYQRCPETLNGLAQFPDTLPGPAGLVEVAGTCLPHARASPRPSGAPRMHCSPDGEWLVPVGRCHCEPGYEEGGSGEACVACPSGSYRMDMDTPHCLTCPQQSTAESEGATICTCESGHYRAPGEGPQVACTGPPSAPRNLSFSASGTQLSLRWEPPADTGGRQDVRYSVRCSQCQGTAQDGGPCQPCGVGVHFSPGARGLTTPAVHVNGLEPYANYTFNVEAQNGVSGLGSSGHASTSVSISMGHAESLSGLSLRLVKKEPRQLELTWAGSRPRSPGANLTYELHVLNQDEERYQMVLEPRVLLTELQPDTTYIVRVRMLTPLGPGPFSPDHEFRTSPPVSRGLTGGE
Assay: Selectivity ELISA of humanized antibodies for human Eph receptor
Type: binding
Settings: coated protein 1 nM
Measured parameter: hEphA1-SEAP-: absorbance at 450 nm, percentage with respect to hEphA4-SEAP-His as 100% (%)

molecule="140 (antibody, V domains shown, synthetic humanized antibody heavy chain variable region sequence; synthetic humanized antibody light chain variable region sequence) VH: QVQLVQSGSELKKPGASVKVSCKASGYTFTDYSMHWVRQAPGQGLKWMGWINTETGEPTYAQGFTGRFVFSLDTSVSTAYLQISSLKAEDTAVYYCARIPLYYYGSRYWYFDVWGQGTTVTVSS VL: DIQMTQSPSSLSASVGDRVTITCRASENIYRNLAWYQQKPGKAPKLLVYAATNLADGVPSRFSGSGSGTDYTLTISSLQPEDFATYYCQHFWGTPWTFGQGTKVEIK" reading_unit=% experimental_result=5.5
molecule="159 (antibody, V domains shown, synthetic humanized antibody heavy chain variable region sequence; synthetic humanized antibody light chain variable region sequence) VH: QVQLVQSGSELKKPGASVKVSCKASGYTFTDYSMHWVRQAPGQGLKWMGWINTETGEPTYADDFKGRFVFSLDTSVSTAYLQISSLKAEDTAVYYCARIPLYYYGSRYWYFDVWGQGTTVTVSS VL: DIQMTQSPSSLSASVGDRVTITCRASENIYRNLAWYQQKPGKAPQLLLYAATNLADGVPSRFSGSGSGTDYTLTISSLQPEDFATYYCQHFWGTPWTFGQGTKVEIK" reading_unit=% experimental_result=5.4
